// IC50 collected for Acetylcholinesterase (Electrophorus electricus, UniProt O42275)

CC(C)(C)NC(=O)C1(N2CCCC2=O)C(=O)Nc2ccc([N+](=O)[O-])cc21 (centres undefined)    45 µM
CC(C)(C)CC(C)(C)NC(=O)C1(N2CCCC2=O)C(=O)Nc2ccccc21 (centres undefined)    > 100 µM
CC(C)(C)CC(C)(C)NC(=O)C1(N2CCC2=O)C(=O)N(Cc2ccccc2)c2ccccc21 (centres undefined)    > 100 µM

Please state recorded IC50 (tested on Acetylcholinesterase (Electrophorus electricus, UniProt O42275)) of O=C1CCN1C1(C(=O)NCc2ccccc2)C(=O)Nc2ccccc21 (centres undefined)
Sequence (O42275 whole entry): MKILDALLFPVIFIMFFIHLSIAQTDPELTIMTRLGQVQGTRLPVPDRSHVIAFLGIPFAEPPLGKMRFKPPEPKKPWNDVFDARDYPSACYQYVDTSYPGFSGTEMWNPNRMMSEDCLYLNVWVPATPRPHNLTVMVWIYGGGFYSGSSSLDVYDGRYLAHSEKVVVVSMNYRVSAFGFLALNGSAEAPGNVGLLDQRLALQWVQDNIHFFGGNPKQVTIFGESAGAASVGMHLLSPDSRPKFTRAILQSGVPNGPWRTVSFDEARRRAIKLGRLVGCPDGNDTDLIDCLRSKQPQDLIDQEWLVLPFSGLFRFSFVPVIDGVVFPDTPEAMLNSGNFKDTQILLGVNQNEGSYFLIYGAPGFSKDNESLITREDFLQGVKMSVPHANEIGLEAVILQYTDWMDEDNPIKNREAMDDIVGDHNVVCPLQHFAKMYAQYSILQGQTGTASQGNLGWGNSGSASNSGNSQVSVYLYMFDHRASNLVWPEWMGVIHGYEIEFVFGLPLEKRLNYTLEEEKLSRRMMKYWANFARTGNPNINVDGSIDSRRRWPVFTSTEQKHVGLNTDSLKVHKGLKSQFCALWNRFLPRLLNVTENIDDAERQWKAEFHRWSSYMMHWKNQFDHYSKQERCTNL
> 100 µM
